- EXPERIMENTAL_PROTOCOL: Dynamic laser light scattering (DLS) of oleic acid micro-/nanoemulsions
- Assay type: physicochemical
- STATED_CONDITIONS: DLS, emulsion with oleic acid
PROPERTY: Mean Size by Intensity

Example entries begin here.
[
  {
    "MOLECULE": "NC(=NCC[C@H](N)C(=O)O)NO [N-ω-Hydroxy-L-norarginine]",
    "Mean Size by Intensity": "325 nm"
  },
  {
    "MOLECULE": "N=C(N)NCCC(=O)O",
    "Mean Size by Intensity": "153 nm"
  }
]

IN: Any idea what its Mean Size by Intensity is? The molecule is O=C(O)CCCNC1=NCCN1
OUT: 627 nm

----------
- EXPERIMENTAL_PROTOCOL: log P of the test substance
Where a SMILES comes first, the peptide text is derived from it.
# key: entry, value: logP
Just the number.

[
  {
    "MOLECULE": "NCC(=O)N[C@@H](Cc1ccccc1)C(=O)O [Gly-Phe, reference compound] (H-Gly-Phe-OH; N-terminus and C-terminus assumed)",
    "PROPERTY": "logP",
    "REPORTED": -0.65
  }
]

IN: Would you mind telling me what logP value was observed for N=C(N)NCCC[C@H](N)C(=O)N[C@@H](Cc1ccccc1)C(=O)O ?
OUT: -3.34

IN: For CN/C(=N\[N+](=O)[O-])NCc1cnc(Cl)s1 , what is its reported logP?
OUT: -2.03

----------
Where a SMILES comes first, the peptide text is derived from it.
Label class 1 for high-side logP (at or above -5) and class 0 for low-side logP (below it).

Solved entries:
[
  {
    "MOLECULE": "C[C@H](NC(=O)[C@H](Cc1ccccc1)NC(=O)[C@@H](N)CCCNC(=N)N)C(=O)O [Arg-Phe-Ala acetate] (H-Arg-Phe-Ala-OH; N-terminus and C-terminus assumed)",
    "CAT": "class 1"
  },
  {
    "MOLECULE": "NCC(=O)N[C@@H](Cc1c[nH]cn1)C(=O)O [Gly-His] (H-Gly-His-OH; N-terminus and C-terminus assumed)",
    "CAT": "class 1"
  },
  {
    "MOLECULE": "N=C(N)NCCC[C@H](NC(=O)[C@@H](N)Cc1c[nH]cn1)C(=O)O [His-Arg] (H-His-Arg-OH; N-terminus and C-terminus assumed)",
    "CAT": "class 0"
  }
]

Field: next molecule
IN: # check: logP of C[C@@H](O)[C@H](N)C(=O)N[C@@H](CCCCN)C(=O)N1CCC[C@H]1C(=O)N[C@@H](CCCNC(=N)N)C(=O)O [Thr-Lys-Pro-Arq (Tuftsin)] (H-TKPR-OH; N-terminus and C-terminus assumed) is greater than or equal to -5
OUT: class 1

----------
- EXPERIMENTAL_PROTOCOL: Dynamic laser light scattering (DLS) of oleic acid micro-/nanoemulsions
- Type: physicochemical
- STATED_CONDITIONS: percentage of the peak in the sample
Listed below: Part values for each entry.
Please answer in the form of a number followed by its unit of measurement.

Solved cases below.
[
  {
    "MOLECULE": "Cc1ccccc1NC(=N)NC(=N)N [1-(o-Tolyl)biguanide]",
    "Part": "95.5%"
  },
  {
    "MOLECULE": "CN/C(=N\\[N+](=O)[O-])NCc1cnc(Cl)s1 [Clothianidine]",
    "Part": "53.9%"
  },
  {
    "MOLECULE": "NC(N)=O [Urea, reference compound]",
    "Part": "96.3%"
  },
  {
    "MOLECULE": "Cl.N[C@@H](Cc1c[nH]cn1)C(=O)O.O [Histidine hydrochloride monohydrate]",
    "Part": "81.9%"
  },
  {
    "MOLECULE": "CN/C(=N/CCSCc1nc[nH]c1C)NC#N [Cimetidine, reference compound]",
    "Part": "67.2%"
  }
]

IN: Could you share which Part value was measured for NC(=NCC[C@H](N)C(=O)O)NO [N-ω-Hydroxy-L-norarginine] ?
OUT: 93.9%

IN: Requested read-out: Part. Entry: CC(=N)NCCCC[C@H](N)C(=O)O [L-NIL]
OUT: 94.1%

IN: Report Part for CN(C)C(N)=NCCC[C@H](N)C(=O)O.Cl.Cl [NG,NG-Dimethylarginine dihydrochloride] please.
OUT: 87.4%

IN: Part for C[C@@H](N[C@@H](CCCN=C(N)N)C(=O)O)C(=O)O [D-(+)-Octopine] ?
OUT: 94.7%

IN: What does the data say about its Part? Entry: NC(=NCCC[C@H](N)C(=O)O)N[N+](=O)[O-] [N-ω-Nitro-L-arginine]
OUT: 46.7%
